- Tested on: A549
- assay explanation: Cytotoxicity was evaluated against A549 tumor cell lines; Inactive
- Format: functional, cell-based
- experimental context: Homo sapiens
The source made the active and inactive calls. The calls are words filed in the database; no cut-off is given here.
reported metric: Cytotoxicity

# smiles representation, result
data = [
    ("COc1cc2c(cc1OC)C(=O)/C(=C/c1ccc(O)c(C(=O)O)c1)CC2", "inactive"),
    ("COc1cc2c(cc1OC)C(=O)/C(=C/c1cccc(OC)c1OC)CC2", "inactive"),
    ("Cc1cc(/C=C2\\Cc3cc4c(cc3C2=O)OCO4)cc(C)c1O", "inactive"),
    ("COc1cc2c(cc1OC)C(=O)/C(=C/c1c(OC)cccc1OC)CC2", "inactive"),
    ("COc1cc2c(c([N+](=O)[O-])c1OC)C(=O)/C(=C/c1cc(C)c(O)c(C)c1)C2", "inactive"),
    ("O=C1/C(=C/c2cc(Cl)cc(Cl)c2)Cc2cc(O)c(O)cc21", "inactive"),
    ("COc1ccc2c(c1)C(=O)/C(=C/c1cc(C)c(O)c(C)c1)C2", "inactive"),
    ("COc1ccc(/C=C2\\CCc3cc(OC)c(OC)cc3C2=O)cc1OC", "inactive"),
    ("COc1cc2c(c([N+](=O)[O-])c1OC)C(=O)/C(=C/c1cc(C)c([N+](=O)[O-])c(C)c1)C2", "inactive"),
    ("COc1ccc(/C=C2\\CCc3cc(OC)c(OC)cc3C2=O)cc1", "inactive"),
    ("COc1ccc(/C=C2\\CCc3cc(OC)c(OC)cc3C2=O)c(OC)c1", "inactive"),
    ("COc1ccc2c(c1)C/C(=C\\c1cc(C)c(O)c(C)c1)C2=O", "inactive"),
    ("COc1ccccc1/C=C1\\CCc2cc(OC)c(OC)cc2C1=O", "inactive"),
]

----------
- System: A549
- assay explanation: Cytotoxicity evaluated against A549 tumor cell lines; significant activity
- Type: functional, cell-based
- experimental context: Homo sapiens

# smiles representation, Cytotoxicity
measured = [
    ("COc1cc2c(cc1OC)C(=O)/C(=C/c1cc(Cl)cc(Cl)c1)CC2", "Significant activity"),
    ("COc1cc2c(cc1OC)C(=O)/C(=C/c1cc(C)cc(C)c1)C2", "Significant activity"),
    ("COc1cc2c(cc1OC)C(=O)/C(=C/c1cc(C)c(O)c(C)c1)C2", "Significant activity"),
    ("COc1cc2c(cc1OC)C(=O)/C(=C/c1cc([N+](=O)[O-])ccc1O)C2", "Significant activity"),
    ("COc1cc2c(cc1OC)C(=O)/C(=C/c1ccc(O)cc1)CC2", "Significant activity"),
    ("COc1cc2c(c(N)c1OC)C(=O)/C(=C/c1cc(C)c(N)c(C)c1)C2", "Significant activity"),
    ("COc1cc2c(cc1OC)C(=O)/C(=C/c1cc(I)cc(I)c1O)C2", "Significant activity"),
    ("COc1cc(/C=C2\\Cc3cc(OC)c(OC)cc3C2=O)cc(OC)c1", "Significant activity"),
    ("COc1cc2c(cc1OC)C(=O)/C(=C/c1cc(C)c(O)c(C)c1)CC2", "Significant activity"),
    ("COc1cc2c(c(N)c1OC)C(=O)/C(=C/c1cc(C)c(O)c(C)c1)C2", "Significant activity"),
    ("COc1cc2c(cc1OC)C(=O)/C(=C/c1cccc(Cl)c1)C2", "Significant activity"),
    ("COc1cc2c(c(OC)c1OC)C(=O)/C(=C/c1cc(C)c(O)c(C)c1)C2", "Significant activity"),
    ("COc1cc2c(cc1OC)C(=O)/C(=C/c1cc(C)c(OC(C)=O)c(C)c1)C2", "Significant activity"),
    ("COc1cc2c(cc1OC)C(=O)/C(=C/c1cccc([N+](=O)[O-])c1)CC2", "Significant activity"),
    ("COc1cc2c(c([N+](=O)[O-])c1O)C/C(=C\\c1cc(C)c(O)c(C)c1)C2=O", "Significant activity"),
    ("COc1cc2c(cc1O)C/C(=C\\c1cc(C)c(O)c(C)c1)C2=O", "Significant activity"),
    ("COc1cc2c(cc1OC)C(=O)/C(=C/c1cc(C)c(N)c(C)c1)C2", "Significant activity"),
    ("COc1cc2c(cc1OC)C(=O)/C(=C/c1cc([N+](=O)[O-])cc([N+](=O)[O-])c1)CC2", "Significant activity"),
    ("COc1cc2c(cc1OC)C(=O)/C(=C/c1cc(OC)c(OC)c(OC)c1)CC2", "Significant activity"),
    ("COc1cc2c(cc1OC)C(=O)/C(=C/c1cc(C)ccc1C)CC2", "Significant activity"),
    ("COc1cc2c(cc1OC)C(=O)/C(=C/c1cc(F)cc(F)c1)C2", "Significant activity"),
]

----------
- Test system: Jurkat
- assay explanation: In vitro test for antitumor activity against human Jurkat cell line using a formazan dye (MTT) conversion assay.
- Type: functional, cell-based
pIC50: −log10 of the molar value.

# smiles representation, prefix operator, pIC50
rows = [
    ("COc1ccc(/C=C2\\CCc3cc(OC)c(OC)cc3C2=O)cc1", "<", 4.30),
    ("COc1cc2c(cc1OC)C(=O)/C(=C/c1cc(C)ccc1C)CC2", "=", 5.22),
    ("COc1cc2c(cc1OC)C(=O)/C(=C/c1cc(C)c([N+](=O)[O-])c(C)c1)C2", "=", 4.60),
    ("COc1ccc(/C=C2\\CCc3cc(OC)c(OC)cc3C2=O)cc1OC", "<", 4.30),
    ("COc1cc2c(cc1OC)C(=O)/C(=C/c1cccc(Cl)c1)C2", "=", 5.10),
    ("Cc1cc(/C=C2\\Cc3cc4c(cc3C2=O)OCO4)cc(C)c1O", "<", 4.30),
    ("COc1cc2c(cc1OC)C(=O)/C(=C/c1cc(C)c(OC(=O)OCC(C)C)c(C)c1)C2", "=", 4.67),
    ("COc1cc2c(c([N+](=O)[O-])c1O)C/C(=C\\c1cc(C)c(O)c(C)c1)C2=O", "=", 5.03),
    ("COc1cc2c(cc1OC)C(=O)/C(=C/c1cccc([N+](=O)[O-])c1)C2", "=", 4.66),
    ("COc1cc(/C=C2\\Cc3cc(OC)c(OC)cc3C2=O)cc(OC)c1", "=", 5.52),
]

----------
- System: WIL2
- assay explanation: Cytotoxicity evaluated against WIL2 tumor cell lines; Significant activity
- Format: functional, cell-based
- experimental context: Homo sapiens

# smiles representation, target entity, Cytotoxicity
records = [
    ("COc1cc2c(cc1OC)C(=O)/C(=C/c1cccc(Cl)c1)CC2", "WIL2", "Significant activity"),
    ("COc1cc2c(cc1OC)C(=O)/C(=C/c1cccc([N+](=O)[O-])c1)CC2", "WIL2", "Significant activity"),
    ("COc1cc2c(cc1OC)C(=O)/C(=C/c1cccc(Cl)c1)C2", "WIL2", "Significant activity"),
    ("COc1cc(/C=C2\\CCc3cc(OC)c(OC)cc3C2=O)cc(OC)c1", "WIL2", "Significant activity"),
    ("COc1cc2c(cc1OC)C(=O)/C(=C/c1cc(C)c(N)c(C)c1)C2", "WIL2", "Significant activity"),
    ("COc1cc2c(cc1O)C/C(=C\\c1cc(C)c(O)c(C)c1)C2=O", "WIL2", "Significant activity"),
    ("COc1cccc(/C=C2\\Cc3cc(OC)c(OC)cc3C2=O)c1", "WIL2", "Significant activity"),
    ("COc1cc2c(cc1OC)C(=O)/C(=C/c1cc([N+](=O)[O-])ccc1O)C2", "WIL2", "Significant activity"),
    ("COc1cc2c(cc1OC)C(=O)/C(=C/c1cc(Cl)cc(Cl)c1)CC2", "WIL2", "Significant activity"),
    ("COc1cc2c(cc1OC)C(=O)/C(=C/c1cc(C)ccc1C)CC2", "WIL2", "Significant activity"),
    ("COc1cc2c(cc1OC)C(=O)/C(=C/c1cc(I)cc(I)c1O)C2", "WIL2", "Significant activity"),
    ("COc1cc(/C=C2\\Cc3cc(OC)c(OC)cc3C2=O)cc(OC)c1", "WIL2", "Significant activity"),
    ("COc1cc2c(cc1OC)C(=O)/C(=C/c1cc(Cl)cc(Cl)c1)C2", "WIL2", "Significant activity"),
    ("COc1cc2c(cc1OC)C(=O)/C(=C/c1cc(C)c(O)c(C)c1)C2", "WIL2", "Significant activity"),
    ("COc1ccc(OC)c(/C=C2\\CCc3cc(OC)c(OC)cc3C2=O)c1", "WIL2", "Significant activity"),
    ("COc1cc2c(cc1OC)C(=O)/C(=C/c1cc(C)cc(C)c1)CC2", "WIL2", "Significant activity"),
    ("COc1cc2c(cc1OC)C(=O)/C(=C/c1cc(C)cc(C)c1)C2", "WIL2", "Significant activity"),
    ("COc1cccc(/C=C2\\CCc3cc(OC)c(OC)cc3C2=O)c1", "WIL2", "Significant activity"),
    ("CCOC(=O)COc1c(C)cc(/C=C2\\Cc3cc(OC)c(OC)cc3C2=O)cc1C", "WIL2", "Significant activity"),
    ("COc1cc2c(cc1OC)C(=O)/C(=C/c1cc(F)cc(F)c1)C2", "WIL2", "Significant activity"),
    ("COc1cc2c(cc1OC)C(=O)/C(=C/c1cc([N+](=O)[O-])cc([N+](=O)[O-])c1)CC2", "WIL2", "Significant activity"),
    ("COc1cc2c(c(OC)c1OC)C(=O)/C(=C/c1cc(C)c(O)c(C)c1)C2", "WIL2", "Significant activity"),
]
